studyTarget: Sigma-2 receptor
method: Sigma-2 receptor competitive radioligand binding assay
testContext: read-out: Sigma-2 Receptor Affinity, Ki
readoutType: Ki (nM)

- molecule: "C[C@H](CCc1ccc(O)c(OC(C)(C)C)c1)N1Cc2c(F)ccc(F)c2C1 [60A]"
  studyTarget: "Sigma-2 receptor"
  Ki [nM]: 1600

1. CC(C)(C)Oc1cc(CCC(C)(C)N2Cc3c(F)ccc(F)c3C2)ccc1O
2. COC[C@H](CCc1ccc(Cl)c(Cl)c1)N1Cc2ccc(F)cc2C1
3. C[C@H](CCc1ccc(F)cc1)N1Cc2ccc(F)cc2C1
4. COc1cc(CCC(C)(C)N2Cc3cccc(C(=O)N4CCOCC4)c3C2)ccc1O
Data request: List these items ordered by Ki, big to small. Answer by listing the labels in the order asked for.
Data returned: 4, 1, 2, 3
(4: 1400 nM, 1: 550 nM, 2: 160 nM, 3: 23 nM)

====

studyTarget: Sigma-2 receptor
method: Sigma-2 receptor competitive radioligand binding assay
testContext: read-out: Sigma-2 Receptor Affinity, Ki
pKi: −log10 of the molar value.
readoutType: pKi

- molecule: "COc1cc(CCC(C)(C)N2Cc3cccc(C(=O)N(C)CCO)c3C2)ccc1O [compound 85]"
  observedValue: 6.44

P. COc1cc(CC[C@@H](C)N2Cc3ccc(F)cc3C2)ccc1OCCO [compound 30]
Q. COc1cc(CCC(C)(C)N2Cc3cccc(C(=O)N4CCN(C(C)=O)CC4)c3C2)ccc1O [compound 83]
Data request: For the pair P and Q , which entry has the numerically smaller recorded pKi? Let me know the label of the one you choose.
Data returned: Q
(Q: 5.00, P: 6.04)

====

method: Mouse liver microsome (MLM) stability
Assay type: in vitro ADME
testContext: mouse, microsomes
Method: A first pharmacokinetic study was performed in microsomes of mice mouse liver microsomes, MLM) by a commercial contract research organization. The studies were performed according to Obach, R. S et al. (1997) J. Pharmacol. Exp. Ther., 283: 46-58, which is incorporated herein by reference.
readoutType: Mouse liver microsomes, MLM t½ (min)

Take a look at these entries with their results.
- molecule: "COc1ccc(CCC(C)(C)N2Cc3cccc(C(=O)N4CCNCC4)c3C2)cc1 [compound 99]"
  unitTag: "min"
  Mouse liver microsomes, MLM t½: 93.3
- molecule: "Cc1ccc2c(c1)CN([C@H](C)CCc1ccc(Cl)c(Cl)c1)C2 [compound 13]"
  unitTag: "min"
  Mouse liver microsomes, MLM t½: 3
- molecule: "CC(C)(CCc1ccc(F)cc1)N1Cc2cccc(F)c2C1 [compound 33]"
  unitTag: "min"
  Mouse liver microsomes, MLM t½: 9
- molecule: "COc1cc(CCC(C)(C)N2Cc3cccc(N4CCNCC4)c3C2)ccc1O [compound 107]"
  unitTag: "min"
  Mouse liver microsomes, MLM t½: 25.21

P. COCCN(C)C(=O)c1cccc2c1CN(C(C)(C)CCc1ccc(O)c(OC)c1)C2 [compound 86]
Q. CN(C)C(=O)c1cccc2c1CN(C(C)(C)CCc1ccc(O)c(OC(C)(C)C)c1)C2 [compound 59]
Data request: So which one has the bigger Mouse liver microsomes, MLM t½ here, P or Q ? Let me know the label of the one you choose.
Data returned: P

====

System: neuronal cultures
method: Functional neuronal phenotype in neuronal cultures
Assay type: cell-based
Design: key: Antagonist: antagonists (block Abeta signaling); Agonist: agonists (block Abeta signaling with U-shaped dose-response curve and toxicity at high doses); Inactive: inactive (no effect in neuronal cultures)
readoutType: neuronal phenotype

Take a look at these entries with their results.
- molecularString: "COc1cc(CCC(C)(C)N2Cc3cccc(F)c3C2)ccc1Cl"
  neuronal phenotype: "Antagonist"
- molecularString: "CC(C)(CCc1ccc(F)cc1)N1Cc2cc3c(cc2C1)OCO3"
  neuronal phenotype: "Antagonist"
- molecularString: "C[C@H](CCc1ccc(F)cc1)N1Cc2ccc(F)cc2C1"
  neuronal phenotype: "Antagonist"
- molecularString: "CC(C)(C)Oc1cc(CCC(C)(C)N2Cc3cccc(S(C)(=O)=O)c3C2)ccc1O"
  neuronal phenotype: "Inactive"

Now for a further compound.
Data request: Provide the reported neuronal phenotype (system: neuronal cultures) for COc1cc(CCC(C)(C)N2Cc3cccc(N4CCNCC4)c3C2)ccc1O
Data returned: Inactive
